# Tested on: Influenza A virus PC/1/73
# ASSAY_DETAILS: microbe, parasite or virus in culture
# Assay type: cell-based
# SETTINGS: Influenza A virus, Epithelial cell, 120 h; read-out: Infl A PC/1/73 EC50
PROPERTY_MEASURED: pEC50
Scale: pEC50 equals -log10([C]), with [C] in mol/L.

Data request: I am curious: what pEC50 value has been reported for `COc1nc(N)nn2c([C@@H]3O[C@H](CO)[C@@H](O)[C@H]3F)cnc12` ?
Data returned: 4.52

* * *

Measured EC50, listed per entry for reference.
# Test system: Influenza B virus B/Lee/40
# ASSAY_DETAILS: Normal Human Bronchial/Tracheal Epithelial Cell Influenza Infection Assay (EC50), Influenza B Lee/40
# Type: cell-based
# SETTINGS: Normal Human Bronchial/Tracheal Epithelial Cells, 10 MOI, five day incubation, neuramidase substrate fluorescence; read-out: Infl B Lee/40 EC50
Reply numerically in µM, unit not repeated.

Take a look at these entries with their results.
1) Nc1ncnn2c([C@H]3O[C@@H](CO)[C@H](O)[C@H]3F)cnc12 [Compound 10]    0.9
2) Nc1nc(N)c2ncc(C3OC(CO)C(O)C3F)n2n1 (centres unmarked) [Compound 6]    51

Data request: I am curious: what EC50 value has been reported for Nc1nn2c([C@@H]3O[C@H](CO)[C@@H](O)[C@@H]3F)cnc2c(=O)[nH]1 [Compound 7] ?
Data returned: 37

* * *

# Tested on: Influenza B virus B/Lee/40
# ASSAY_DETAILS: Normal Human Bronchial/Tracheal Epithelial Cell Influenza Infection Assay (EC50), Influenza B Lee/40
# Format: cell-based
# SETTINGS: Influenza B virus, Epithelial cell, 120 h; Normal Human Bronchial/Tracheal Epithelial Cells, 10 MOI, five day incubation, neuramidase substrate fluorescence; read-out: Infl B Lee/40 EC50
PROPERTY_MEASURED: EC50 (µM)
Reply numerically in µM, unit not repeated.

Data request: I am curious: what EC50 value has been reported for `COc1nc(N)nn2c([C@@H]3O[C@H](CO)[C@@H](O)[C@H]3F)cnc12` ?
Data returned: 36

* * *

# ASSAY_SYSTEM: Influenza RNA polymerase (Influenza A virus)
# ASSAY_DETAILS: Influenza RNA Polymerase Inhibition (IC50) Assay
# SETTINGS: virus lysate of Influenza A/PR/8/34 (H1N1), 30° C. for 90 minutes, α-33P labeled NTP incorporation
PROPERTY_MEASURED: pIC50
Scale: pIC50 equals -log10([C]), with [C] in mol/L.

Data request: I am curious: what pIC50 value has been reported for `Nc1nn2c([C@@H]3O[C@H](COP(=O)(O)OP(=O)(O)OP(=O)(O)O)[C@@H](O)[C@H]3F)cnc2c(=O)[nH]1` ?
Data returned: 5.55
